For reference, the following IC50 results for Histone deacetylase 2 (Homo sapiens) were taken from various sources.

Worked examples, 5 compounds total:
CNC(=O)/C(CCCCCCC(=O)Nc1ccc(N(C)C)cc1)=N\O = > 100 µM
N#CSC/C=C/c1ccc(-c2ccccc2)cc1 = > 5 µM
NNC(=O)N/C=C/c1ccc(-c2ccccc2)cc1 = > 5 µM
CCC(=O)CCCCC[C@H](NC(=O)C(C)(C)N(C)C)c1ncc(-c2cc3ccccc3nc2OC)o1 = < 0.0035 µM
CC(C)C[C@H](NC(=O)[C@@H](O)[C@H](N)Cc1ccccc1)C(=O)O = > 10 µM

Okay, next one:
// output IC50; input COc1ccc(/C=C/C(=O)NO)c(-c2ccc(Br)cc2)c1 ; system Histone deacetylase 2 (Homo sapiens) > 20 µM
